# Study target: P2X7 receptor (Homo sapiens)
# Construct: endogenous in cells; host or cells: THP-1 cells differentiated with LPS and IFN-γ
# Sequence (Q99572 whole entry): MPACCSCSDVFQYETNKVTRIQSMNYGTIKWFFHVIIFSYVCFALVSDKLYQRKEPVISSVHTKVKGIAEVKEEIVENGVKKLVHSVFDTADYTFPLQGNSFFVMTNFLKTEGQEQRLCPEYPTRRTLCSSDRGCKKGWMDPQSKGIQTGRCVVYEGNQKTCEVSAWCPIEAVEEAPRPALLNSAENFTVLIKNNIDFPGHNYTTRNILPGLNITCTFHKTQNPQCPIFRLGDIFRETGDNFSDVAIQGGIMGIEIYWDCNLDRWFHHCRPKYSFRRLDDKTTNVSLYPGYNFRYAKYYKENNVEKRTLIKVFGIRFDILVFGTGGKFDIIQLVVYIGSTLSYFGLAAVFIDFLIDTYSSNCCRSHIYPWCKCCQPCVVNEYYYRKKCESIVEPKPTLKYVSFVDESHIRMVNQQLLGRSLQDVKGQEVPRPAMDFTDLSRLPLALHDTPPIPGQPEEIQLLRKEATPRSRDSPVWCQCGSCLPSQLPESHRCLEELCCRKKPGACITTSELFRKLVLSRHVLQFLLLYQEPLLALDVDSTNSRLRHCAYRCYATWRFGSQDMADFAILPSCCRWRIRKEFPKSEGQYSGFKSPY
# Experiment: IL-1β release assay in differentiated THP-1 cells stimulated with BzATP (Example 9)
# Type: cell-based
# Condition set: 0.3 μM concentration, read-out: IL-1β % Inhib. @ 0.3 or 0.1 μM
Listed here: items and their measured inhibition at 0.3 µM.
Measurement name: inhibition at 0.3 µM

[[record]]
molecule = "Cc1ncccc1-n1ccc2c(NC(=O)Cc3cc(F)c(F)c(F)c3)cccc2c1=O [ID 866]"
study_target = "P2X7 receptor (Homo sapiens)"
measurement_name = "inhibition at 0.3 µM"
reported_result = "51 to 75%"

[[record]]
molecule = "O=C(Cc1ccc(Cl)c(F)c1)Nc1cccc2c(=O)n(-c3cccnc3F)ccc12 [ID 873]"
study_target = "P2X7 receptor (Homo sapiens)"
measurement_name = "inhibition at 0.3 µM"
reported_result = "> 76%"

[[record]]
molecule = "Cc1ccc(-n2ccc3c(NC(=O)CC45CC6CC(CC(C6)C4)C5)cccc3c2=O)c(C)n1 [ID 703]"
study_target = "P2X7 receptor (Homo sapiens)"
measurement_name = "inhibition at 0.3 µM"
reported_result = "> 76%"

[[record]]
molecule = "O=C(Cc1ccc(Cl)c(C(F)(F)F)c1)Nc1cccc2c(=O)n(-c3cccnc3F)ccc12 [ID 870]"
study_target = "P2X7 receptor (Homo sapiens)"
measurement_name = "inhibition at 0.3 µM"
reported_result = "> 76%"

[[record]]
molecule = "O=C(Cc1cccc(C(F)(F)F)c1F)Nc1cccc2c(=O)n(C3CCC3)ccc12 [ID 886]"
study_target = "P2X7 receptor (Homo sapiens)"
measurement_name = "inhibition at 0.3 µM"
reported_result = "> 76%"

[[record]]
molecule = "O=C(Cc1ccc(F)c(C(F)(F)F)c1)Nc1cccc2c(=O)n(-c3cccnc3F)ccc12 [ID 872]"
study_target = "P2X7 receptor (Homo sapiens)"
measurement_name = "inhibition at 0.3 µM"
reported_result = "> 76%"

[[record]]
molecule = "O=C(CC1CCCCCC1)Nc1cccc2c(=O)n(C3CC3)ccc12 [ID 878]"
study_target = "P2X7 receptor (Homo sapiens)"
measurement_name = "inhibition at 0.3 µM"
reported_result = "> 76%"

[[record]]
molecule = "O=C(Cc1ccc(F)c(Cl)c1)Nc1cccc2c(=O)n(C3CCC3)ccc12 [ID 893]"
study_target = "P2X7 receptor (Homo sapiens)"
measurement_name = "inhibition at 0.3 µM"
reported_result = "> 76%"

[[record]]
molecule = "Cc1ccc2c(=O)n([C@H]3CCNC3)ccc2c1NC(=O)Cc1ccc(F)c(C(F)(F)F)c1 [ID 901]"
study_target = "P2X7 receptor (Homo sapiens)"
measurement_name = "inhibition at 0.3 µM"
reported_result = "> 76%"

[[record]]
molecule = "O=C(CC12CC3CC(CC(C3)C1)C2)Nc1cccc2c(=O)n(-c3cccnc3N3CCOCC3)ccc12 [ID 712]"
study_target = "P2X7 receptor (Homo sapiens)"
measurement_name = "inhibition at 0.3 µM"
reported_result = "> 76%"

[[record]]
molecule = "O=C(CC1(O)CCCCCC1)Nc1cccc2c(=O)n([C@H]3CCNC3)ccc12 [ID 849]"
study_target = "P2X7 receptor (Homo sapiens)"
measurement_name = "inhibition at 0.3 µM"
reported_result = "0 to 25%"

[[record]]
molecule = "O=C(CC12CC3CC(CC(C3)C1)C2)Nc1cccc2c(=O)n(-c3cccnc3Oc3ccccc3F)ccc12 [ID 714]"
study_target = "P2X7 receptor (Homo sapiens)"
measurement_name = "inhibition at 0.3 µM"
reported_result = "> 76%"

[[record]]
molecule = "O=C(Cc1ccc(Cl)cc1F)Nc1cccc2c(=O)n(C3CCC3)ccc12 [ID 888]"
study_target = "P2X7 receptor (Homo sapiens)"
measurement_name = "inhibition at 0.3 µM"
reported_result = "> 76%"

[[record]]
molecule = "O=C(CC12CC3CC(CC(C3)C1)C2)Nc1cccc2c(=O)n(C3CC3)ccc12 [ID 889]"
study_target = "P2X7 receptor (Homo sapiens)"
measurement_name = "inhibition at 0.3 µM"
reported_result = "> 76%"

[[record]]
molecule = "Cc1ncccc1-n1ccc2c(NC(=O)Cc3ccc(C(F)(F)F)cc3)cccc2c1=O [ID 851]"
study_target = "P2X7 receptor (Homo sapiens)"
measurement_name = "inhibition at 0.3 µM"
reported_result = "> 76%"

[[record]]
molecule = "O=C(Cc1cccc(C(F)(F)F)c1F)Nc1cccc2c(=O)n(C3CN4CCC3CC4)ccc12 (stereo not drawn) [ID 845]"
study_target = "P2X7 receptor (Homo sapiens)"
measurement_name = "inhibition at 0.3 µM"
reported_result = "> 76%"

[[record]]
molecule = "O=C(Cc1ccc(Cl)cc1F)Nc1cccc2c(=O)n(C3CN4CCC3CC4)ccc12 (stereo not drawn) [ID 846]"
study_target = "P2X7 receptor (Homo sapiens)"
measurement_name = "inhibition at 0.3 µM"
reported_result = "> 76%"

[[record]]
molecule = "O=C(CC1(O)CCCCCC1)Nc1cccc2c(=O)n(C3CCNCC3)ccc12 [ID 813]"
study_target = "P2X7 receptor (Homo sapiens)"
measurement_name = "inhibition at 0.3 µM"
reported_result = "0 to 25%"

